The measured values listed here are drawn from patent US7601716B2.

baculovirus-expressed ALK (Homo sapiens): recorded pIC50 for assorted compounds; note: 1 µM ATP (Km level)
Sequence (Q9UM73 19-1620): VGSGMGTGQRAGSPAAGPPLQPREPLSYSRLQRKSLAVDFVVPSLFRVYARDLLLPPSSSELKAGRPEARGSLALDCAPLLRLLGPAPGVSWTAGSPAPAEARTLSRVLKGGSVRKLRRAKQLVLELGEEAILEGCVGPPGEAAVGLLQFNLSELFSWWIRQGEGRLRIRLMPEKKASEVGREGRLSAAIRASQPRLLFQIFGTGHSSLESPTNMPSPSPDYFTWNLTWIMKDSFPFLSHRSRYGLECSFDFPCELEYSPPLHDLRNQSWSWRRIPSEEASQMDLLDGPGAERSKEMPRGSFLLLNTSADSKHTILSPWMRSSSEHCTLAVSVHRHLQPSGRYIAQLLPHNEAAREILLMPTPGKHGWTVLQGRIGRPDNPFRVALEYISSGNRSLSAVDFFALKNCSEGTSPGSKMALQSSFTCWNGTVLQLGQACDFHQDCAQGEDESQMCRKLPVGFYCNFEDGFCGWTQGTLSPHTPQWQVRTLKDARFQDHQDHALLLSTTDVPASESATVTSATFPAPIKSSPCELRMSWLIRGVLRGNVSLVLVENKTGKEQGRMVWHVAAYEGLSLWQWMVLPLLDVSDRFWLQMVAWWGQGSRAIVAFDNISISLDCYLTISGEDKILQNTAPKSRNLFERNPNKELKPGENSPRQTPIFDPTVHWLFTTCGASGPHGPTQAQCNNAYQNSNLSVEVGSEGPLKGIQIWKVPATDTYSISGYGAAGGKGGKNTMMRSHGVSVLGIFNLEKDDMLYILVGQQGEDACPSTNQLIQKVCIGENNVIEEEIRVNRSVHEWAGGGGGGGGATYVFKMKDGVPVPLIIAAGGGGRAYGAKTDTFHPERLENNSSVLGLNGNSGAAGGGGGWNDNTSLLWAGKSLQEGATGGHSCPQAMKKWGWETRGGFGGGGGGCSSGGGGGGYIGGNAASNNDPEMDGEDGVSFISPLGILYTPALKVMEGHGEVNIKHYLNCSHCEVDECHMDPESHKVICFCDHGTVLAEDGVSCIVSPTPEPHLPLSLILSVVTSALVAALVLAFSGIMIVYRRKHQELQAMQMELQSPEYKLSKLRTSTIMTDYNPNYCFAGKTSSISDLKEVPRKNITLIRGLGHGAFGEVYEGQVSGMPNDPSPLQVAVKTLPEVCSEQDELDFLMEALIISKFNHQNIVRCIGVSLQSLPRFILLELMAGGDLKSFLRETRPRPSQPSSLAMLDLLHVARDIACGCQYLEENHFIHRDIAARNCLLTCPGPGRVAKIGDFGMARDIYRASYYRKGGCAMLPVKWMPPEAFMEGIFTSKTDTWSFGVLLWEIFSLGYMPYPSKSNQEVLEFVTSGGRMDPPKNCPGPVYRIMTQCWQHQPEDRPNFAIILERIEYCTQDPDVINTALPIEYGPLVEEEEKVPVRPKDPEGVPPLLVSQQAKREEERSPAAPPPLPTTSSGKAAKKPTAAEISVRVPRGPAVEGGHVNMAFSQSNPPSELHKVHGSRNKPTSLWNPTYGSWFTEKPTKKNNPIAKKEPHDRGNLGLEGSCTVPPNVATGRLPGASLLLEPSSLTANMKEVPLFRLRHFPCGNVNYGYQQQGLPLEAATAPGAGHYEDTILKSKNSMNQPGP
pIC50: −log10 of the molar value. Counter-ions that a name gives are not always drawn.

compound	pIC50
O=C(c1cccc(-c2cnc3c(c2)N(Cc2cc(Cl)ccc2C(F)(F)F)CCN3)c1)N1CCOCC1	6.00 to 7.00
O=C(NCCOc1ccccc1)c1ccc(-c2cnc3c(c2)N(Cc2cc(Cl)ccc2C(F)(F)F)CCN3)cc1	6.00 to 7.00
O=C1CCNc2nc(Br)ccc21	< 4.00
O=C(c1cccc(-c2cnc3c(c2)N(Cc2cc(Cl)ccc2C(F)(F)F)CCN3)c1)N1CCN(c2cnccn2)CC1	6.00 to 7.00
O=C(c1cnc2c(c1)N(Cc1cc(Cl)ccc1Cl)CCN2)N1CCN(c2nccc3occc23)CC1	5.00 to 6.00
COc1ccccc1CN(C)C(=O)c1cccc(-c2cnc3c(c2)N(Cc2cc(Cl)ccc2C(F)(F)F)CCN3)c1	6.00 to 7.00
CN1CCN(C(=O)c2ccc(-c3cnc4c(c3)N(Cc3ccccc3)C(=O)CN4)cc2)CC1 [Example 25, trifluoroacetic acid salt]	5.00 to 6.00
COc1ccc(CNC(=O)c2cccc(-c3cnc4c(c3)N(Cc3cc(Cl)ccc3C(F)(F)F)CCN4)c2)cc1	6.00 to 7.00

###

Record: IC50 reported on baculovirus-expressed ALK (Homo sapiens).
attributeMeasured: IC50

molecule	experimentalResult
O=C(NCc1ccncc1)c1cnc2c(c1)N(Cc1cc(Cl)ccc1Cl)CCN2	1000 to 10000 nM
O=C(c1ccccc1)N1CCN(C(=O)c2cccc(-c3cnc4c(c3)N(Cc3cc(Cl)ccc3C(F)(F)F)CCN4)c2)CC1	100 to 1000 nM
O=C(c1ccc(-c2cnc3c(c2)N(Cc2cc(Cl)ccc2C(F)(F)F)CCN3)cc1)N1CCC2(CC1)OCc1ccccc12	100 to 1000 nM
O=C(c1ccc(-c2cnc3c(c2)N(Cc2cc(Cl)ccc2C(F)(F)F)CCN3)cc1)N1CCC(c2ccccc2)CC1	100 to 1000 nM
CN1CCN(C(=O)c2ccc(-c3cnc4c(c3)C(Oc3cc(Cl)cc(Cl)c3)CCN4)cc2)CC1 (stereo not drawn)	10000 to 100000 nM
O=C(c1ccc(-c2cnc3c(c2)N(Cc2cc(F)c(F)cc2F)CCN3)cc1)N1CCC[C@H]1CN1CCCC1	100 to 1000 nM

###

# targetOrSystem: c-Met (cytoplasmic domain) (Homo sapiens, UniProt P08581)
# Sequence (P08581 956-1390 limits assumed): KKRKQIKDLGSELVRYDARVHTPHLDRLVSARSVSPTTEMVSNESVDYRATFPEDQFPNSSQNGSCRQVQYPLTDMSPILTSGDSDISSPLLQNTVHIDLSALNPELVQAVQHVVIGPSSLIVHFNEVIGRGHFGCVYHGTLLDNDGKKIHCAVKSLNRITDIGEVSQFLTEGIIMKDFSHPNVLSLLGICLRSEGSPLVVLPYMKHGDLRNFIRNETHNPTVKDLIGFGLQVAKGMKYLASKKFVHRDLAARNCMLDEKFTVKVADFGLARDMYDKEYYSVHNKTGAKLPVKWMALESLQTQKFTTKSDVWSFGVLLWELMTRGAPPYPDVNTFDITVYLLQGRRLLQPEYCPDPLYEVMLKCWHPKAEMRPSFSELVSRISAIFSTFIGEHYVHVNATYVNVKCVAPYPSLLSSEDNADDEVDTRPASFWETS
Where a name gives a salt, the structure may show the parent alone.
Documented IC50 across a set of molecules

molecule	IC50
O=C(c1ccc(-c2cnc3c(c2)N(Cc2ccccc2)C(=O)CN3)cc1)N1CCC(N2CCCC2)CC1 [Example 26, trifluoroacetic acid salt]	10 to 100 µM
O=C1CNc2ncc(-c3ccc(NS(=O)(=O)CCN4CCC[C@H]4CN4CCCC4)cc3)cc2N1Cc1cc(F)ccc1F	10 to 100 µM
O=C(c1cc(F)ccc1F)N1CCNc2ncc(-c3ccc(C(=O)N4CCC[C@H]4CN4CCCC4)cc3)cc21	10 to 100 µM
CN1CCN(CCNC(=O)c2cnc3c(c2)N(Cc2cc(F)ccc2F)CCN3)CC1	> 100 µM
O=C(c1cnc2c(c1)N(Cc1cc(Cl)ccc1Cl)CCN2)N1CCN(Cc2ccc(Cl)cc2)CC1	> 100 µM
O=C(NCc1ccccc1Cl)c1cnc2c(c1)N(Cc1cc(Cl)ccc1Cl)CCN2	> 100 µM
O=C(NCc1ccccc1)c1cnc2c(c1)N(Cc1cc(Cl)ccc1Cl)CCN2	> 100 µM
CCNC(=O)c1cccc(-c2cnc3c(c2)N(Cc2ccccc2)C(=O)CN3)c1	> 100 µM
CN1CCN(c2ccc(-c3cnc4c(c3)N(Cc3cc(Cl)ccc3Cl)CCN4)cn2)CC1	1 to 10 µM
OC1CNc2ncc(I)cc2N1Cc1cc(F)ccc1C(F)(F)F (centres unmarked)	10 to 100 µM
O=C(c1ccc(-c2cnc3c(c2)N(Cc2ccccc2)CCN3)cc1)N1CCC[C@H]1CN1CCCC1 [Example 38, trifluoroacetic acid salt]	0.1 to 1 µM

###

attributeMeasured: melting point

compound	attributeMeasured	experimentalResult
O=S1(=O)CCN(CC#Cc2cnc3c(c2)N(Cc2cc(Cl)ccc2Cl)CCN3)CC1	melting point	> 200 °C
O=C(O)c1cncc(-c2cnc3c(c2)N(Cc2cc(F)ccc2F)CCN3)c1	melting point	255 to 260 °C
O=C(Cc1cc(F)ccc1F)N1CCNc2ncc(I)cc21	melting point	152 to 153 °C
O=C1CNc2ncc(-c3cccnc3)cc2N1Cc1c(Cl)cccc1Cl	melting point	> 200 °C
CCOC(=O)c1ccc(-c2cnc3c(c2)N(Cc2cc(F)ccc2F)C(=O)CN3)cc1	melting point	201 to 203 °C
N#Cc1cnc2c(c1)N(Cc1cc(Cl)ccc1Cl)CCN2	melting point	221 to 222 °C
N#Cc1ccc(-c2cnc3c(c2)N(Cc2cc(F)ccc2F)CCN3)cn1	melting point	200 °C (dec.)
CN1CCN(C(=O)c2ccc(-c3cnc4c(c3)N(Cc3cc(F)c(F)cc3F)C(=O)CN4)cc2)CC1	melting point	238 °C
NC(=O)c1ccc(-c2cnc3c(c2)N(Cc2ccccc2)C(=O)CN3)cc1	melting point	> 200 °C
Fc1ccc(F)c(/C=C2/CCNc3nc(Br)ccc32)c1	melting point	178 to 179 °C
O=C(c1ccccc1)N1CCNc2ncccc21	melting point	166 to 168 °C
OC1CCNc2nc(Br)ccc21 (centres unmarked)	melting point	130 to 131 °C
O=C(O)c1ccc(-c2cnc3c(c2)N(Cc2c(Cl)cccc2Cl)C(=O)CN3)cc1	melting point	> 200 °C
O=S(=O)(c1ccccc1Cl)N1CCNc2ncc(I)cc21	melting point	146 to 147 °C
CCOC(=O)c1ccc(-c2cnc3c(c2)NC(=O)CN3)cc1	melting point	> 200 °C
CC1(C)Nc2ncc(-c3ccc(C(=O)N4CCC[C@H]4CN4CCCC4)cc3)cc2N(Cc2cc(F)ccc2F)C1=O	melting point	171 to 172 °C
O=C1CNc2ncc(-c3ccc(C(=O)N4CCC[C@H]4CN4CCCC4)cc3)cc2N1Cc1cc(F)ccc1F	melting point	125 °C
O=C1CNc2ncc(I)cc2N1Cc1ccc(C(F)(F)F)o1	melting point	189 to 191 °C
O=C1CNc2ncc(-c3ccc(NS(=O)(=O)CCN4CCOCC4)cc3)cc2N1Cc1cc(F)ccc1F	melting point	225 °C
O=C1CNc2ncc(I)cc2N1Cc1ccccc1OC(F)(F)F	melting point	235 °C
Fc1ccc(F)c(CN2CCNc3ncc(-c4ccnc(N5CCOCC5)c4)cc32)c1Cl	melting point	157 °C
O=C1CN(Cc2c(F)ccc(F)c2Cl)c2cc(Br)cnc2N1	melting point	214 to 216 °C (dec.)
O=C(O)c1ccc(-c2cnc3c(c2)N(Cc2ccccc2)CCN3)cc1	melting point	> 300 °C

###

# targetOrSystem: c-Met (cytoplasmic domain) (Homo sapiens)
pIC50: −log10 of the molar value. Structures can show the parent of a compound that is named as a salt.

compound	pIC50
O=C(Cc1cc(F)ccc1F)N1CCNc2ncc(I)cc21	4.00 to 5.00
Fc1ccc(F)c(CN2CCNc3ncc(-c4cnc(N5CCOCC5)nc4)cc32)c1Cl	4.00 to 5.00
CC(c1cc(F)c(F)cc1F)N1CCNc2ncc(-c3ccc(C(=O)N4CCC[C@H]4CN4CCCC4)cc3)cc21 (some centres unmarked) [Example 148, trifluoroacetic acid salt]	4.00 to 5.00
CC1(C)Nc2ncc(-c3ccc(C(=O)N4CCC[C@H]4CN4CCCC4)cc3)cc2N(Cc2cc(F)ccc2F)C1=O	4.00 to 5.00
COc1ccc(N2CCN(C(=O)c3cnc4c(c3)N(Cc3cc(Cl)ccc3Cl)CCN4)CC2)cc1	< 4.00
NS(=O)(=O)c1ccc(CCNC(=O)c2cnc3c(c2)N(Cc2cc(Cl)ccc2Cl)CCN3)cc1	< 4.00
CN1CCN(C(=O)c2ccc(-c3cnc4c(c3)N(C(=O)c3ccccc3)CCN4)cc2)CC1	4.00 to 5.00
CN(C)CCCNC(=O)c1ccc(-c2cnc3c(c2)N(C(=O)c2ccccc2)CCN3)cc1	4.00 to 5.00

###

# targetOrSystem: baculovirus-expressed ALK (Homo sapiens); note: 1 µM ATP (Km level)
pIC50: −log10 of the molar value.
Here, each record is paired with measured pIC50 data.

molecule	pIC50
CC(c1cc(F)c(F)cc1F)N1C(=O)CNc2ncc(I)cc21 (stereo not drawn) [Example 145]	< 4.00
FC(F)(F)c1ccc(Cl)cc1CN1CCNc2ncc(-c3cn[nH]c3)cc21 [Example 200]	6.00 to 7.00
O=C(NCc1ccc(OC(F)(F)F)cc1)c1ccc(-c2cnc3c(c2)N(Cc2cc(Cl)ccc2C(F)(F)F)CCN3)cc1 [Example 395]	6.00 to 7.00

###

pIC50: −log10 of the molar value. Structures can show the parent of a compound that is named as a salt.
Consider compounds characterized by their pIC50 with UniProt Q9UM73.

compound	targetOrSystem	pIC50
COc1cccc(CNC(=O)c2ccc(-c3cnc4c(c3)N(Cc3cc(Cl)ccc3C(F)(F)F)CCN4)cc2)c1	UniProt Q9UM73	6.00 to 7.00
O=C(c1ccc(-c2cnc3c(c2)N(Cc2ccccc2)C(=O)CN3)cc1)N1CCC(N2CCCC2)CC1 [Example 26, trifluoroacetic acid salt]	UniProt Q9UM73	5.00 to 6.00
O=C(c1cnc2c(c1)N(Cc1cc(Cl)ccc1Cl)CCN2)N1CCC2(CC1)C(=O)NCN2c1ccccc1	UniProt Q9UM73	5.00 to 6.00
O=C1CNc2ncc(-c3ccc(NS(=O)(=O)CCN4CCCC4)cc3)cc2N1Cc1cc(F)ccc1F	UniProt Q9UM73	6.00 to 7.00
O=C(NCc1ccccc1)c1cccc(-c2cnc3c(c2)N(Cc2cc(Cl)ccc2C(F)(F)F)CCN3)c1	UniProt Q9UM73	6.00 to 7.00
O=C(c1cccc(-c2cnc3c(c2)N(Cc2cc(Cl)ccc2C(F)(F)F)CCN3)c1)N1CCN(CC2CCCCC2)CC1	UniProt Q9UM73	6.00 to 7.00
CC1(C)Nc2ncc(-c3ccc(C(=O)N4CCC[C@H]4CN4CCCC4)cc3)cc2N(Cc2cc(F)ccc2F)C1=O	UniProt Q9UM73	5.00 to 6.00
COc1ccc(N2CCN(C(=O)c3ccc(-c4cnc5c(c4)N(Cc4cc(Cl)ccc4C(F)(F)F)CCN5)cc3)CC2)cc1	UniProt Q9UM73	6.00 to 7.00
CN1CCN(C(=O)c2ccc(-c3cnc4c(c3)C(Oc3cccnc3)CCN4)cc2)CC1 (stereo not shown)	UniProt Q9UM73	4.00 to 5.00
O=C(c1ccc(-c2cnc3c(c2)N(Cc2cc(Cl)ccc2C(F)(F)F)CCN3)cc1)N1CCN(c2ccccc2)CC1	UniProt Q9UM73	6.00 to 7.00
O=C(c1ccc(-c2cnc3c(c2)N(Cc2c(Cl)cccc2Cl)CCN3)cc1)N1CCC[C@H]1CN1CCCC1	UniProt Q9UM73	> 7.00
O=C(NCCCN1CCOCC1)c1ccc(-c2cnc3c(c2)N(Cc2ccccc2)C(=O)CN3)cc1 [Example 14, trifluoroacetic acid salt]	UniProt Q9UM73	4.00 to 5.00
CN1CCN(C(=O)c2ccc(-c3cnc4c(c3)N(Cc3cc(F)ccc3F)C(=O)CN4)cc2)CC1	UniProt Q9UM73	6.00 to 7.00
